# protocol text: Half-life in BALB/c mouse at 5 mg/kg, iv measured upto 24 hrs by LC-MS/MS analysis
# Type: ADME, organism-based
# experimental setup: in vivo
half-life overview
Provide only the numeric value, understood in h.

* CCCSc1nc2c(c(=O)[nH]1)[C@@H](c1ccc(OC)cc1[N+](=O)[O-])CC(=O)N2 | 13.1

Please look at the following compound next.
*Q* Bench note: what half-life did `CCCSc1nc2c(c(=O)[nH]1)[C@@H](c1ccc(OC)cc1)CC(=O)N2` show?
*A* 7.01

* * *

# protocol text: Metabolic stability in mouse liver microsomes assessed as substrate remaining at 2 uM preincubated for 60 mins followed by NADPH addition and measured upto 60 mins by LC-MS analysis
# Type: ADME, Microsome
# experimental setup: time < 120 min, read-out: Stability
Listed here: items and their measured remaining at 1 h, 2 µM.
Reply numerically in %, unit not repeated.

Some entries whose results are on file:
• CCCSc1nc2c(c(=O)[nH]1)[C@@H](c1ccc(OC)cc1[N+](=O)[O-])CC(=O)N2 = 86.2
• CCCSc1nc2c(c(=O)[nH]1)[C@@H](c1ccc(OC)cc1)CC(=O)N2 = 88.5
• CCCSc1nc2c(c(=O)[nH]1)C(c1ccc(OC)cc1)CC(=O)N2 (racemic) = 87.6

Continue with the compound presented below.
*Q* What value of remaining at 1 h, 2 µM has been recorded for this entry: CCCSc1nc2c(c(=O)[nH]1)C(c1ccc(OC)cc1[N+](=O)[O-])CC(=O)N2 (racemic)
*A* 66.8
